# subject of test: hTRPV3 (Homo sapiens (Human), UniProt Q8NET8)
# Sequence (Q8NET8 whole entry): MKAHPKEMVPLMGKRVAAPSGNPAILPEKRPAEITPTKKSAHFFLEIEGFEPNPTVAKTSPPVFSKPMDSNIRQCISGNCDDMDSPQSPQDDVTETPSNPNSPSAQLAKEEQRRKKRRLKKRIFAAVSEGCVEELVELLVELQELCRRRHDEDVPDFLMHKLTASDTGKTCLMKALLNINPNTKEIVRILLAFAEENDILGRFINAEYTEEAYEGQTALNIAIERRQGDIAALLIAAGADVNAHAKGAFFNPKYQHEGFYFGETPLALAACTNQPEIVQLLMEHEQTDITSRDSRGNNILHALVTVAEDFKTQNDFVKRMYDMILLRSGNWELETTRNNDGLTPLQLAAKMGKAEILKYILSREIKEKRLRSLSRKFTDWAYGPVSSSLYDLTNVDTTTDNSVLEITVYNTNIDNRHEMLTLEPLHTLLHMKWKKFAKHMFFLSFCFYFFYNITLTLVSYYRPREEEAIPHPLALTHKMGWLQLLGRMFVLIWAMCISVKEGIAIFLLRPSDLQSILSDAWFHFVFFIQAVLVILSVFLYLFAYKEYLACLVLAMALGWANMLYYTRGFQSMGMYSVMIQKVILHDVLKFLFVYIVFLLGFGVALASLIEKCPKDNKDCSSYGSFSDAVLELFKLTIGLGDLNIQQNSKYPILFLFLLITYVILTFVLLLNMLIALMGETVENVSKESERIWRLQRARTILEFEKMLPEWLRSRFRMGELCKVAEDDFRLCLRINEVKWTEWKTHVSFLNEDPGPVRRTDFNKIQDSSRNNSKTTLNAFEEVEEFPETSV
# method summary: Whole-cell patch clamp, hTRPV3 Phase 1 / Phase 2 currents
# Type: cell-based
# run parameters: Phase 1 current; read-out: hTRPV3 (nM) (Phase 1)
Please note: IC50 exactly at 200 nM is Not met. Only values below 200 nM get Met.

Below 200 nM on IC50? Entry `OCCc1cc(Oc2ccccc2F)ccc1N1CC[C@H](Oc2ccccn2)C1` Not met

Strictly below 200 nM in IC50? `OCc1ccc(-c2ccccc2)cc1N1CC[C@H](Oc2ccc(C(F)(F)F)cn2)C1` Not met

Here's an entry: `N#Cc1ccc(-c2ccc(N3CC[C@H](Oc4ccc(C(F)(F)F)cn4)C3)c(CO)c2)cc1` . Is its IC50 below 200 nM? Not met

Does this molecule meet the criterion IC50 < 200 nM? `OC[C@@H]1C[C@@H](Oc2ccc(C(F)(F)F)cn2)CN1c1ccc(-c2ccccc2)cc1` Not met

Please check: IC50 for `Cc1ccc(C(=O)c2ccc(N3CC[C@H](Oc4ncccc4F)C3)c(CO)c2)cc1` , strictly under 200 nM or not? Not met

Problem: For the molecule `Cc1ccccc1C(=O)c1ccc(N2CC[C@H](Oc3ncccc3Cl)C2)c(CO)c1` , is IC50 under 200 nM? Met

Given the entry `NC(=O)c1cc(-c2cccnc2)ccc1N1CC[C@H](Oc2ccc(C(F)(F)F)cn2)C1` , would its reported IC50 be below 200 nM? Not met

Given the entry `COc1ccccc1-c1ccc(N2CC[C@H](Oc3ccc(C)cn3)C2)c(CO)n1` , would its reported IC50 be below 200 nM? Not met

Record `NC(=O)c1cc(-c2ccccc2Cl)ccc1N1CC[C@H](Oc2ccc(C(F)(F)F)cn2)C1` : is its IC50 strictly below 200 nM? Met

For this molecule, is IC50 lower than 200 nM? `OCCCc1cc(-c2ccccc2Cl)ccc1N1CC[C@H](Oc2ccc(C(F)(F)F)cn2)C1` Met

* * *

I'd be grateful if you could share measured pIC50 for these entries.
# subject of test: hTRPV3 (Homo sapiens (Human))
# method summary: Whole-cell patch clamp, hTRPV3 Phase 1 / Phase 2 currents
# Assay type: cell-based
# run parameters: Phase 1 current, inward, whole-cell patch clamp; read-out: hTRPV3 Patch P1 Inwd
pIC50: −log10 of the molar value.

Looking up `CCc1ccccc1Oc1ccc(N2CC[C@H](Oc3ncccc3Cl)C2)c(C#N)c1` , I see its pIC50 listed as < 6.00

pIC50 recorded for this compound, `COCc1ccccc1Oc1ccc(N2CC[C@H](Oc3ncccc3C)C2)c(CCO)c1` , is 6.00 to 7.00

Reported pIC50 for `CC(=O)c1ccc(Oc2ccc(N3CC[C@H](Oc4ccccn4)C3)c(CO)c2)c(F)c1` was 6.00 to 7.00

The recorded pIC50 for entry `COc1ccccc1Oc1ccc(N2CC[C@H](Oc3ncccc3C)C2)c(CO)c1` equals 7.00 to 8.00

Looking up `NCc1cc(-c2ccccc2Cl)ccc1N1CC[C@H](Oc2ccc(C(F)(F)F)cn2)C1` , I see its pIC50 listed as < 6.00

So, `COc1ccccc1Oc1ccc(N2CC[C@H](Oc3ccc(C)cn3)C2)c(CO)c1` ? Its pIC50 was < 6.00

In plain terms, `NC(=O)c1cc(-c2ccncc2)ccc1N1CC[C@@H](Oc2ccccn2)C1` has a documented pIC50 of < 6.00

What the record says about `CCc1ccccc1Oc1ccc(N2CC[C@H](Oc3ccc(C#N)cn3)C2)c(CCO)c1` : pIC50 is 6.00 to 7.00

// field: pIC50; key: `OCc1cc(Oc2ccccc2F)ccc1N1CC[C@H](Oc2ccccn2)C1` ; value = 6.00 to 7.00
